The following variants are shown together with reported abundance fitness values.
B1: POU domain, class 4, transcription factor 1, residues 266 to 347; numbered along this chain, Q01851 (parent)
chain: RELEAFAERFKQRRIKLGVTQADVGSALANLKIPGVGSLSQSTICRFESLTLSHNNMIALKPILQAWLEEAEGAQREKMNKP

- Variants of: B1
- Experimental details: abundance fitness (aPCA) (normalised: wild type 0, dead -1); higher = more abundant; growth selection in yeast, the domain comes from the species named
- Condition context: Homo sapiens
Please state the value as a number alone, without comment.

Consider `L64Y` . Its measured abundance fitness is -0.144

Consider `K16A` . Its measured abundance fitness is 0.085

Consider `L60F` . Its measured abundance fitness is -0.355
